Tested on: Plasmodium falciparum
PROTOCOL DETAILS: Inhibition of Plasmodium falciparum protein farnesyltransferase at 50 nM by scintillation proximity assay
inhibition listing for selected compounds.
API: value field is a number in %; no unit string.

* CCN(CC)C(=O)c1ccc2c(c1)CC(N(CC(=O)NC(C)(C)C)S(=O)(=O)c1cn(C)cn1)CN2Cc1cncn1C (centres undefined) | 73
* COC(=O)c1cccc(CN(C2Cc3cc(C#N)ccc3N(Cc3cncn3C)C2)S(=O)(=O)c2ccccn2)n1 (centres undefined) | 96
* Cn1cnc(S(=O)(=O)N(CCCCN2C(=O)c3ccccc3C2=O)C2Cc3cc(C#N)ccc3N(Cc3cncn3C)C2)c1 (centres undefined) | 97

Please turn your attention to the following entry.
Any idea what its inhibition is? The compound is CC(=O)OCC(=O)N(Cc1ccccc1F)C1Cc2cc(C#N)ccc2N(Cc2cncn2C)C1 (centres undefined) 33
